Test system: C. albicans R303
Measurement Description: Mouse candidiasis infection model, C. albicans density in kidneys
Type: in vivo, female CD-1 mice
Setup Conditions: Second run, 5 mg/kg IP 2 hr after infection, kidneys at 24 hr
Property: Difference from 24-hr control (ns log10 CFU/kidneys)
Supply the numeric figure in ns log10 CFU/kidneys, leaving out any unit text.

Lookup result for CCC(C)CC(C)CCCCCCCCC(=O)NC1CC(O)C(NCCN)NC(=O)C2C(O)CCN2C(=O)C(C(O)CCNC(=O)OCCOCCOCCOC)NC(=O)C(C(O)C(O)c2ccc(O)cc2)NC(=O)C2CC(O)CN2C(=O)C(C(C)O)NC1=O (stereo not drawn) ; measured Difference from 24-hr control: −0.45

The reported Difference from 24-hr control of the molecule CCC(C)CC(C)CCCCCCCCC(=O)NC1CC(O)C(NCCN)NC(=O)C2C(O)CCN2C(=O)C(C(O)CCNC(=O)OCCOC)NC(=O)C(C(O)C(O)c2ccc(O)cc2)NC(=O)C2CC(O)CN2C(=O)C(C(C)O)NC1=O (stereo not drawn) was −1.13

Reference source: patent US20120190613A1
